- TGT: T1, HLA-A2 on T2 cells pulsed with NY-ESO-1:157-165, wt peptide (C165) (human)
- T1 construct: also called T2 Pulsed NY-ESO-1_157-165
- PROTOCOL_SUMMARY: flow cytometry, 10 ug/ml, pulsed T2 cells
METRIC_NAME: ratio of MFI, pulsed to unpulsed (ratio)
The response must be a number in ratio with no trailing unit.

[ask] ratio of MFI, pulsed to unpulsed for mAb28042P (antibody, human IgG4 S228P, kappa, V domains shown) VH: QLQLQESDPGLVKPSETLSLTCTVSGDSIRNSNYYWGWIRQPPGKGLEWIGSIYFSGRTYFNPSLKSRVTIPVDMSKNQFSLMLNSVTATDTAVYYCARHGGITAAGGFFDYWGQGTLVTVSS VL: DIQMTQSPSSLSASVGDRVTITCQASQDISNYLNWYQQKPGKAPNVLIYDASNLETGVPSRFSGSGSGTDFTFTISSLQPEDFATYYCQQNDNLPLTFGGGTKVEIKR ?
[reply] 134
